Target: T1, ROR1 naturally expressed on human tumor cell lines (A549, Jeko-1, SW620, PA-1) (human, UniProt Q01973 30-937)
T1 construct: whole, on cells; also called cells expressing ROR1
T1 sequence (Q01973 30-937): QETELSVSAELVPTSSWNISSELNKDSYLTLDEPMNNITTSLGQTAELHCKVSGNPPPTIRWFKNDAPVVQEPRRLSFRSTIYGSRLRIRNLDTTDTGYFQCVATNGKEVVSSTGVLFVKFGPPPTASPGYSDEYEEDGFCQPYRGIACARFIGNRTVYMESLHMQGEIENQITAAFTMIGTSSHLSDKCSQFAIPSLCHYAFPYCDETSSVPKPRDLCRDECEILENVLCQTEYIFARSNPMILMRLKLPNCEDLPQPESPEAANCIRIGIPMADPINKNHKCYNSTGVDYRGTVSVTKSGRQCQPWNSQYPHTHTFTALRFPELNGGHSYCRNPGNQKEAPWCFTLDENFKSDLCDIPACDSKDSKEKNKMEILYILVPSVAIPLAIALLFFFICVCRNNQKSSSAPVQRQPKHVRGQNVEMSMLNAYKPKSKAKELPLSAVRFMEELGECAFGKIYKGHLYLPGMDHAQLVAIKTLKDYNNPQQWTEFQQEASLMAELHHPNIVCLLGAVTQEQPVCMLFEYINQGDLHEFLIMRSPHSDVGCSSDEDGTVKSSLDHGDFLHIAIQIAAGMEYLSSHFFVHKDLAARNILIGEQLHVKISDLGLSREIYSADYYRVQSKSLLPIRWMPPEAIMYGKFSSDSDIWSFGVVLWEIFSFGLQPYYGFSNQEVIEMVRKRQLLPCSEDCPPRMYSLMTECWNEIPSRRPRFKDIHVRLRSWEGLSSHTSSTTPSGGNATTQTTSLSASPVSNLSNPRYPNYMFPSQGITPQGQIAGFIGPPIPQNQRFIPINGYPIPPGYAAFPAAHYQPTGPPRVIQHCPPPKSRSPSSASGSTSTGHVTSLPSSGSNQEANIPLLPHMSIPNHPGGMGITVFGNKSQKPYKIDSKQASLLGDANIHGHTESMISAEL
Assay: FACS on SW620 cells naturally expressing ROR1
Kindly return yes if reported Top (MFI) is no lower than 30000 MFI; return no if it is lower.

binder="hz137G11D10-2.2 (antibody, human IgG1, kappa, V domains shown, Humanized, human IgG1/kappa) VH: QVQLQESGPGLVKPSQTLSLTCTVSGYSITSDYAWNWIRQHPGKGLEWIGYITYSASTSYNPSLKSRVTISRDTSKNQFFLKLSSVTAADTAVYYCARGAGTYYFDYWGQGTLVTVSS VL: DIQMTQSPSSLSASVGDRVTITCITSTDIDEDMNWYQQKPGKAPKLLIYEDNSLRPGVPSRFSGSGYGTDFTLTISSLQPEDFATYYCLQTNNLPLTFGQGTKVEIKR" discrete_label=no
binder="UC-961 (antibody, V domains shown) VH: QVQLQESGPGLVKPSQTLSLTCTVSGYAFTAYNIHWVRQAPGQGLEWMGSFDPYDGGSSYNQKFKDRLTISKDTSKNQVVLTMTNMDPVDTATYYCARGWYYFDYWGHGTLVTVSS VL: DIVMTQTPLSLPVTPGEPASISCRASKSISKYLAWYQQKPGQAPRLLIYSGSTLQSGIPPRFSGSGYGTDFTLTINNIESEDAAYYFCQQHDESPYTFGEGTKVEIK" discrete_label=no
binder="hz137G11D10-1.1 (antibody, human IgG1, kappa, V domains shown, Humanized, human IgG1/kappa) VH: QVQLQESGPGLVKPSQTLSLTCTVSGYSITSDYAWNWIRQHPGKGLEWIGYITYSASTSYNPSLKSRVTISRDTSKNQFSLKLSSVTAADTAVYYCARGAGTYYFDYWGQGTLVTVSS VL: ETTLTQSPAFMSATPGDKVNISCITSTDIDEDMNWYQQKPGEAAKLIISEDNSLRPGIPPRFSSSGYGTDFTLTINNIESEDAAYYFCLQTNNLPLTFGQGTKVEIKR" discrete_label=yes

### Prompt Hi, just wondering whether hz137G11D10-1.2 (antibody, human IgG1, kappa, V domains shown, Humanized, human IgG1/kappa) VH: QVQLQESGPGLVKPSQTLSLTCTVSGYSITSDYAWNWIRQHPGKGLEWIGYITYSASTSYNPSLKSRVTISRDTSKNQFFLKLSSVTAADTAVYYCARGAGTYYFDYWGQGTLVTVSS VL: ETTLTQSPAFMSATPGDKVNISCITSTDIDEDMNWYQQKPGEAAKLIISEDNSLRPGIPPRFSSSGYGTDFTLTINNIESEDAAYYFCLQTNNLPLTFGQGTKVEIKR shows Top (MFI) of 30000 MFI or higher.
### Response yes
